Values from patent US20120149700A1

TESTED ON: P2X2/3 (Homo sapiens, UniProt P56373+Q9UBL9)
Sequence (Q9UBL9 whole entry, one chain of several): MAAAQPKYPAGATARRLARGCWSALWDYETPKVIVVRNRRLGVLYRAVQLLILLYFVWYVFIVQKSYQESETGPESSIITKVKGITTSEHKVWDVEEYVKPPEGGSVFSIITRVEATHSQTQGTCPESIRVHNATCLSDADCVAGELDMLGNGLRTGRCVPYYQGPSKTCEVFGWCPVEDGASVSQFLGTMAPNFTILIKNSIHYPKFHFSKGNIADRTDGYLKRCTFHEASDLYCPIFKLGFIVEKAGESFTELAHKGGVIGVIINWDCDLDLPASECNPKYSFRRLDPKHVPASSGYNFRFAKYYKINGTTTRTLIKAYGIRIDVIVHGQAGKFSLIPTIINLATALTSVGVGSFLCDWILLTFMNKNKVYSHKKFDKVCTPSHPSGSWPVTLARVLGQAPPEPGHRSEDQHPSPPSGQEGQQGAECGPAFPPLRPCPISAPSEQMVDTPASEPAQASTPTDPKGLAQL
EXPERIMENTAL DETAILS: Calcium uptake assay (P2X antagonist assay, inhibition of agonist-induced calcium influx), P2X2/3
DETAILS: inhibition of agonist-induced calcium influx in cells expressing the receptor
PARAMETER MEASURED: IC50 (nM)

molecule=COc1ccc([C@@H](CO)Nc2ncnc3c2CN(c2ccc(Cl)cc2C#N)CC3)cn1 value=200
molecule=N#Cc1cc(Cl)ccc1N1CCc2ncnc(NCc3ccc(Cl)c(-n4cnnc4)c3)c2C1 value=286
molecule=Cc1ccc(CNc2ncnc3c2CN(c2ccc(Cl)cc2C#N)CC3)cc1S(C)(=O)=O value=241
molecule=Cc1ccc(N2CCc3ncnc(NCc4ccc(C)c(F)c4)c3C2)c(C#N)c1 value=124
molecule=N#Cc1cc(Cl)ccc1N1CCc2ncnc(NCc3ccc(C(F)(F)F)cn3)c2C1 value=4890
molecule=N#Cc1cc(Cl)ccc1N1CCc2ncnc(NCc3ccn4ccnc4c3)c2C1 value=753

[A] Cc1ccc(N2CCc3ncnc(NCc4ccc(C(F)(F)F)nc4)c3C2)c(C#N)c1
[B] Cc1ccc(N2CCc3ncnc(NC(CCO)c4ccc(C(F)(F)F)nc4)c3C2)c(C#N)c1 (centres unmarked)
[C] CC(=O)OCC[C@@H](Nc1ncnc2c1CN(c1ccc(C)cc1C#N)CC2)c1ccc(C(F)(F)F)nc1
[D] Cc1ccc(N2CCc3ncnc(NCc4ccc5cccnc5c4)c3C2)c(C#N)c1
[E] Cc1ccc(N2CCc3ncnc(NCc4ccc(C)c(N5CCOCC5)c4)c3C2)c(C#N)c1
List by increasing IC50. Lab note: final answer is the ordered label list. D, A, B, C, E
(D: 24 nM, A: 92 nM, B: 136 nM, C: 536 nM, E: 1120 nM)

###

TESTED ON: P2X3 (Homo sapiens)
EXPERIMENTAL DETAILS: Calcium uptake assay (P2X antagonist assay, inhibition of agonist-induced calcium influx), P2X3
DETAILS: inhibition of agonist-induced calcium influx in cells expressing the receptor
Method: The human P2X2/3 chimera clone is created as described by Neelands et al, and then cloned into an expression vector as above. […] Functional activity of compounds at the P2X receptor is determined by measuring their ability to inhibit agonist-induced calcium influx. […] At the start of each screening day, the agonist EC50 is determined. Compound % inhibition or IC50s are subsequently determined using a pre-determined agonist concentration (EC50-90 depending on cell line) as a stimulus. […]
PARAMETER MEASURED: IC50 (nM)

Consider the following illustrative entries.
compound="Cc1ccc(N2CCc3ncnc(NCc4ccc(Cl)cn4)c3C2)c(C#N)c1 [Compound 28]" parameter_measured=IC50 value=29
compound="Cc1ccc(N2CCc3ncnc(N[C@H](CCO)c4ccc(C(F)F)nc4)c3C2)c(C#N)c1 [Compound 22]" parameter_measured=IC50 value=13
compound="N#Cc1cc(Cl)ccc1N1CCc2ncnc(NCc3ccc(C(F)(F)F)cn3)c2C1 [Compound 17]" parameter_measured=IC50 value=118
compound="Cc1ccc(N2CCc3ncnc(NCc4ccc(C(F)(F)F)nc4)c3C2)c(C#N)c1 [Compound 1]" parameter_measured=IC50 value=19

[P] Cc1ccc(N2CCc3ncnc(NCc4ccc(C)c(I)c4)c3C2)c(C#N)c1 [Compound 55]
[Q] Cc1ccc(N2CCc3ncnc(NCc4ccc(Cl)c(-n5cnnc5)c4)c3C2)c(C#N)c1 [Compound 50]
[R] CC(=O)OCC[C@@H](Nc1ncnc2c1CN(c1ccc(C)cc1C#N)CC2)c1ccc(C(F)(F)F)nc1 [Compound 77]
List by increasing IC50. Lab note: final answer is the ordered label list. Q, R, P

###

TESTED ON: P2X3 (Homo sapiens, UniProt P56373)
Sequence (P56373 whole entry): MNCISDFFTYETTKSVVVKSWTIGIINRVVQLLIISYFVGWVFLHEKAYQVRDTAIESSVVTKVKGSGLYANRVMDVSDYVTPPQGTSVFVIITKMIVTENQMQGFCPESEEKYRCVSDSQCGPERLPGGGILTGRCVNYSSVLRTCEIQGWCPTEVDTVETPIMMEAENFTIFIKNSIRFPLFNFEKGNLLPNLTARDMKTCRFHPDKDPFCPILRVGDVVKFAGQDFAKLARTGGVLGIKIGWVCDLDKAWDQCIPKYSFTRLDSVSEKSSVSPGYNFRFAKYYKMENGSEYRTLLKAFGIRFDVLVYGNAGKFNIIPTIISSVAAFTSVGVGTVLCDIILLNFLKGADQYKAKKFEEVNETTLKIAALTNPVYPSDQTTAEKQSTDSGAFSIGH
EXPERIMENTAL DETAILS: Calcium uptake assay (P2X antagonist assay, inhibition of agonist-induced calcium influx), P2X3
DETAILS: inhibition of agonist-induced calcium influx in cells expressing the receptor
PARAMETER MEASURED: IC50 (nM)

molecule=N#Cc1ccccc1N1CCc2ncnc(NCc3ccc(C(F)(F)F)nc3)c2C1 tested_on="P2X3 (Homo sapiens, UniProt P56373)" value=63
molecule="Cc1ccc(N2CCc3ncnc(NC(CCO)c4ccc(C(F)(F)F)nc4)c3C2)c(C#N)c1 (stereo not drawn)" tested_on="P2X3 (Homo sapiens, UniProt P56373)" value=55
